biological target: UniProt P21452; assay: Binding affinity against recombinant human tachykinin receptor 2 in CHO cells using [3H]NKA as a radioligand
reported property: pKi
One number for each entry, as −log10 of the molar value.

Illustrative cases are given below, each with its answer.
C=CCO/N=C(\COCc1cc(C(F)(F)F)cc(C(F)(F)F)c1)C(CCN1CCC(O)(c2ccccc2)CC1)c1ccc(Cl)c(Cl)c1 (centres undefined)
6.67
CN(C/C(=N\OCCCn1cnnn1)C(CCN1CCC(N2CCCCC2=O)CC1)c1ccc(Cl)c(Cl)c1)C(=O)c1cc(Cl)cc(Cl)c1 (centres undefined)
7.77
CN(C/C(=N\OCCCO)C(CCN1CCC(N2CCCCC2=O)CC1)c1ccc(Cl)c(Cl)c1)C(=O)c1cc(Cl)cc(Cl)c1 (centres undefined)
8.82

Quick note, pKi for NC(=O)CO/N=C(\COCc1cc(C(F)(F)F)cc(C(F)(F)F)c1)C(CCN1CCC(O)(c2ccccc2)CC1)c1ccc(Cl)c(Cl)c1 (centres undefined) landed at 7.24

----------
Molecular target: Substance-K receptor (Homo sapiens, UniProt P21452)
Sequence (P21452 whole entry): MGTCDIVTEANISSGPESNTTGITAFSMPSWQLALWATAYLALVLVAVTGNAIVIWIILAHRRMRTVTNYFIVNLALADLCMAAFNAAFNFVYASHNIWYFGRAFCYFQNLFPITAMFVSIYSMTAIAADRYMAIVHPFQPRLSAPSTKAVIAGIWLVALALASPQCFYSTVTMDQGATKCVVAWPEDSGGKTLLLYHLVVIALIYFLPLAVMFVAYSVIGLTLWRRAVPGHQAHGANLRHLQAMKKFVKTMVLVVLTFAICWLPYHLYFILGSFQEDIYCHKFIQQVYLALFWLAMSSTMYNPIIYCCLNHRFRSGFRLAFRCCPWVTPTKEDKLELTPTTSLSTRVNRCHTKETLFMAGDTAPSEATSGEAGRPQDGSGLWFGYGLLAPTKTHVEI
Test: Binding affinity against recombinant human tachykinin receptor 2 in CHO cells using [3H]NKA as a radioligand
Assignment: determine reported pKi for the given compounds.
Numbers only, as −log10 of the molar value.

Below, 3 compounds whose answers are already recorded.
CN(C/C(=N\OCCCn1ccnc1)C(CCN1CCC(N2CCCCC2=O)CC1)c1ccc(Cl)c(Cl)c1)C(=O)c1cc(Cl)cc(Cl)c1 (configuration not stated)
8.17
CNC(=O)CO/N=C(\COCc1cc(C(F)(F)F)cc(C(F)(F)F)c1)C(CCN1CCC(O)(c2ccccc2)CC1)c1ccc(Cl)c(Cl)c1 (configuration not stated)
7.35
COC(=O)CO/N=C(\CN(C)C(=O)c1cc(Cl)cc(Cl)c1)C(CCN1CCC(N2CCCCC2=O)CC1)c1ccc(Cl)c(Cl)c1 (configuration not stated)
7.78

Look at each compound and report its pKi.
1. CCO/N=C(\COCc1cc(C(F)(F)F)cc(C(F)(F)F)c1)C(CCN1CCC(O)(c2ccccc2)CC1)c1ccc(Cl)c(Cl)c1 (configuration not stated)
2. COCCO/N=C(\COCc1cc(C(F)(F)F)cc(C(F)(F)F)c1)C(CCN1CCC(O)(c2ccccc2)CC1)c1ccc(Cl)c(Cl)c1 (configuration not stated)
3. CN(C/C(=N\OCCCn1cccn1)C(CCN1CCC(N2CCCCC2=O)CC1)c1ccc(Cl)c(Cl)c1)C(=O)c1cc(Cl)cc(Cl)c1 (configuration not stated)
4. CN(C/C(=N\OCCC[N+](C)(C)C)C(CCN1CCC(N2CCCCC2=O)CC1)c1ccc(Cl)c(Cl)c1)C(=O)c1cc(Cl)cc(Cl)c1 (configuration not stated)

Out:
6.97
7.30
7.60
6.23
